System: RXF 393 renal
run description: NCI-60 one-dose screen, 48 h
condition description: 10 µM unless noted
The panel holds about 83,000 compounds, 20% with a hit somewhere; the sample as a whole holds those more often. Calls of active or inactive are those of the source. How the source made its calls: active means growth percent below 10; inactive means the rest.
Possible outcomes: active, inactive

1) COc1ccccc1CNCCCCCCCCCCCCN1C(=O)c2ccc3c4c(ccc(c24)C1=O)C(=O)N(CCCCCCCCCCCCNCc1ccccc1OC)C3=O	active
2) O/N=C/c1cccs1	inactive
3) C[C@@H](Oc1cc(-c2cnn(C3CC4(CCNCC4)C3)c2)cnc1N)c1c(F)ccc(Cl)c1Cl	active
4) COc1ccccc1/C=C/C(=O)/C=C/c1ccccc1O	active
5) Cc1ccc(S(=O)(=O)N(c2ccc(Cl)cc2)c2ccc(Br)cc2C(=O)O)cc1	inactive
6) C=C1CC[C@@H]2[C@@](C)(CCC[C@]2(C)C(=O)O)[C@@H]1CC[C@H](CO)CCO	inactive
7) FC(F)(F)c1cc(CNc2ncc(Br)c(Cl)n2)cc(C(F)(F)F)c1	inactive
8) COc1cc(/C=N/NC(=O)c2cnn3c2NC(c2ccccc2)C3)cc(OC)c1OC (stereo unspecified)	inactive
9) CC(=O)Nc1ccccc1-c1n[nH]c(=O)[nH]c1=O	inactive
10) NC(=O)c1cccc(-n2ccc3cc(NC(=O)Nc4ccc(Cl)c(Cl)c4)ccc32)n1	active
11) COc1ccc(-c2nn(-c3ccc(NC(=O)c4ccc(Cl)c(Cl)c4)cc3)cc2-c2ccncc2)cc1Cl	active
